# measured-target: HuCD100 (cell surface) (human, UniProt Q92854)
# Sequence (Q92854 22-734): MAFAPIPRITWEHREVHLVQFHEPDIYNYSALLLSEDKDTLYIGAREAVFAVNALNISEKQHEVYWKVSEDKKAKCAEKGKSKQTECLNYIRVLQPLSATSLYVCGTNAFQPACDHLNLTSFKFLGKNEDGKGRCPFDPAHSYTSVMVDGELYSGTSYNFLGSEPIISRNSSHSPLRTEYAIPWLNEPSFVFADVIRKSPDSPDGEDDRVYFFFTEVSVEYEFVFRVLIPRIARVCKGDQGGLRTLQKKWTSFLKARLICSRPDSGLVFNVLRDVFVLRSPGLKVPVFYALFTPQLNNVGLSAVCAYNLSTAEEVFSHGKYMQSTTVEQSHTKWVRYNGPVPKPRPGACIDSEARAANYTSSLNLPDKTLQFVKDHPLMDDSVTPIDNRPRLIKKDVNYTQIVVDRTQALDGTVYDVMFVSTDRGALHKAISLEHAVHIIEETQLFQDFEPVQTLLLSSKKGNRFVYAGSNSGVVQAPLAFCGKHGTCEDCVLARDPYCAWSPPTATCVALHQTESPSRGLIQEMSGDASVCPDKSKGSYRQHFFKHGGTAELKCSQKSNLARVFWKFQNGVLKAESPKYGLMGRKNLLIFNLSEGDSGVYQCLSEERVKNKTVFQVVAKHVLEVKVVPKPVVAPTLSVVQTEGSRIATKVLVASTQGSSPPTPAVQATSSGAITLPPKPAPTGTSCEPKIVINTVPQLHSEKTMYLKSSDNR
# assay-notes: FACS, HuPBMC
The reader will find reported EC50 values listed item by item below.

{"columns": ["binder", "EC50 / µg/mL"],
 "data": [
  ["H96 (antibody, V domains shown) VH: QVQLQQWGAGLLKPSETLSLTCAVYGGSFSGYYWSWIRQPPGKGLEWIGEINHSGSTNYNPSLKSRVTISVDTSKNQFSLKLSSVTAADTAVYYCARESNSYGYGTDYWGQGTLVTVSS VL: QSALTQPPSVSVSPGQTATITCSGDKLGEKYAFWYQQKPGQSPVLVIYQDNKRPSGIPERFTGSNSGNTATLTIFGTQTMDEADYYCQAWDSSTYVFGTGTKVTVL", 0.0104],
  ["H21 (antibody, V domains shown) VH: EVQLVQSGGGLVQPGRSLRLSCAASGFTFDDYAMHWVRQAPGKGLEWVSGISWNSGSIGYADSVKGRFTISRDNAKNSLYLQMNSLRAEDTALYYCAKDIGGSYFDYYYYGMDVWGQGTLVTVSS VL: EIVLTQSPATLSLSPGERATLSCRTSHNVNTYIAWYQQKPGQAPRLLFYDSSTRLPDTPARFSGSGSGTDFTLTISSLEPEDFAVYYCQQRTSWPLTFGGGTKVEIK", 0.0154],
  ["A15 (antibody, V domains shown) VH: EVQLLESGGGLIQPGGSLRLSCAASGFTVSSNYMSWVRQAPGKGLEWVSVIYSGGSTYYADSVKGRFTISRDNSKNTLYLQMNSLRAEDTAVYYCAREVEGGMDVWGQGTTVTVSS VL: SYVLTQPPSVSVSPGQTASIICSGDKLGDKYVYWYQQKSGQSPVLVIYQDRKRPSGIPERFSGSNSGNTASLAISGLQSEDEADYYCAAWDDSLNGWVFGGGTKLTVL", 0.00589],
  ["H5 (antibody, V domains shown) VH: QLQLQESGPGLVKPPGTLSLTCAVSGGSISSSNWWSWVRQPPGKGLEWIGEIYHSGSTNYNPSLKSRVTISVDTSKNQFSLKLSSVTAADTAVYYCAVYDFWSGSGLDYWGQGTLVTVSS VL: SYVLTQPPSVSVSPGQTASITCSGDKLGDKFASWYQQKPGQSPVLVIYQDRKRPSRIPERFSGSNSGNTATLTITGTQTIDEADYYCQAWDSGTVIFGGGTKLTVL", 0.0132],
  ["C-C171 (antibody, V domains shown) VH: QVQLQESGPGLVKPSGTLSLSCTVSGGSMSSNYLWSWVRQTPGKGLQWIGDIFHSGRTYYNPSLKRRVTISVDKSKNQFSLKLSSVTAADTAVYYCARQGWTTPFDYWGQGTPVTVSS VL: DIQLTQSPSSVSASVGDRVTITCRASQGISSWLAWYQQKPGKAPKLLIYAASSLQSGVPSRFSGSGSGTDFTLTISSLQPEDFATYYCLQDVYYPWTFGQGTTVEIK", 0.0859]
]}
